# ASSAY_SETUP: [M+Na]+; instrument: DT; stepped-field
// classify: if (collision cross section (N2) < 300 Å²) satisfied else not satisfied

>>> label("CCCCCCCCCCCCC=CC[C@@H](O)[C@H](CO[C@@H]1O[C@H](CO)[C@@H](O)C(O)C1O)NC(=O)CC=CCC=CCCCCCCCCCCCCCCCCCCC (stereo partly specified)")
"not satisfied"
>>> label("CCCCCCCCCCCCC=CC[C@@H](O)[C@H](COP(=O)([O-])OCC[N+](C)(C)C)NC(=O)CCCCCCCCCCCCCCCCCCCCCCCCC")
"not satisfied"
>>> label("CC/C=C\\C/C=C\\C/C=C\\C/C=C\\CCCCC(=O)O[C@H](COCCCCCCCCCCCCCCCC)COP(=O)(O)OCCN")
"satisfied"
